system.under.test: HLA-B*0702 (human)
procedure.details: competition binding assay against a labelled reference peptide; Ki from IC50
condition.notes: remark: other sources report otherwise
Listed binders paired with reported Ki
Quick note: number first, unit second.

Incoming: For APLGGAARAL (modifications not checked) , write its Ki.
Outgoing: 1 nM

More entries:
Incoming: For APTLWARMIL (modifications not checked) , write its Ki.
Outgoing: 1 nM

Incoming: For QPRGRRQPI (modifications not checked) , write its Ki.
Outgoing: 1 nM

Incoming: For KPTLHGPTPL (modifications not checked) , write its Ki.
Outgoing: 6 nM

Incoming: For LPRRGPRLGV (modifications not checked) , write its Ki.
Outgoing: 3 nM
